System: UniProt:Q99594
Sequence (Q99594 whole entry, species assumed): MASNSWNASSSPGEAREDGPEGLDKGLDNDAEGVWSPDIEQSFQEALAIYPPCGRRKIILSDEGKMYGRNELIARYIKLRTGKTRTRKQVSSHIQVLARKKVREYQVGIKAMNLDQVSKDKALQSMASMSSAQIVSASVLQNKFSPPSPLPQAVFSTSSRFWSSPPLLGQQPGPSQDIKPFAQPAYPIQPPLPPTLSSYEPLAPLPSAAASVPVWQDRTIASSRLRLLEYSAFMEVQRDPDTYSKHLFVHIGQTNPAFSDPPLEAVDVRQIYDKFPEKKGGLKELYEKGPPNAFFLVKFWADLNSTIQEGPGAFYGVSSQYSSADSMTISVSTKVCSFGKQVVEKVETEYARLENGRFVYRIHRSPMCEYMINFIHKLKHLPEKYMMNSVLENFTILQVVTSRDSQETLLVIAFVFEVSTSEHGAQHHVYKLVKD
Test name: TR-FRET lipid pocket probe competition assay (Lipid HTRF), TEAD3
Type: binding
Parameter measured: pIC50
# log scale: pIC50 equals minus log10 of the concentration in mol/L

`[2H]C([2H])=C([2H])C(=O)NCc1nn(-c2ccc(OC(F)(F)F)cc2)c2nccc([C@H](O)CO)c12` has a reported pIC50 of 5.92

----------
System: TEAD4 (Homo sapiens (Human), UniProt Q15561)
Sequence (Q15561 whole entry, species assumed): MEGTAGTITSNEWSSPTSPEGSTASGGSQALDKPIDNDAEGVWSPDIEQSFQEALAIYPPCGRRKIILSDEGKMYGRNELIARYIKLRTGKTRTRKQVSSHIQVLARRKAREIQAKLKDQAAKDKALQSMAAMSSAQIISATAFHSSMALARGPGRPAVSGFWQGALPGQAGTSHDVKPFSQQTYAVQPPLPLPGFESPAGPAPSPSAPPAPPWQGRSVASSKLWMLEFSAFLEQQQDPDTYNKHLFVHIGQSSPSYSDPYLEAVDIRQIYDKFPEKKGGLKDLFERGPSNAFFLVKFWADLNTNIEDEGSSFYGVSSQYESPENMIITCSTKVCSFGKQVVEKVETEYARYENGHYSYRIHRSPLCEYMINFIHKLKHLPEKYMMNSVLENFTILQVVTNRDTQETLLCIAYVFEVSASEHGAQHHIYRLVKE
Test name: TR-FRET lipid pocket probe competition assay (Lipid HTRF), TEAD4;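 further: His-tagged TEAD4 with biotinylated lipid-pocket probe, read by Europium anti-His and XL665 streptavidin, where probe displacement lowers the TR-FRET signal, IC50 from a four-parameter fit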
Type: binding
Parameter measured: IC50 (nM)
Write the answer as a number in nM, unit excluded.

[2H]C([2H])=C([2H])C(=O)NCc1nn(-c2ccc(OC(F)(F)F)cc2)c2nccc([C@H](O)CO)c12 [Compound 154] has a reported IC50 of 22

----------
System: TEAD1 (Homo sapiens (Human))
Sequence (P28347 whole entry, species assumed): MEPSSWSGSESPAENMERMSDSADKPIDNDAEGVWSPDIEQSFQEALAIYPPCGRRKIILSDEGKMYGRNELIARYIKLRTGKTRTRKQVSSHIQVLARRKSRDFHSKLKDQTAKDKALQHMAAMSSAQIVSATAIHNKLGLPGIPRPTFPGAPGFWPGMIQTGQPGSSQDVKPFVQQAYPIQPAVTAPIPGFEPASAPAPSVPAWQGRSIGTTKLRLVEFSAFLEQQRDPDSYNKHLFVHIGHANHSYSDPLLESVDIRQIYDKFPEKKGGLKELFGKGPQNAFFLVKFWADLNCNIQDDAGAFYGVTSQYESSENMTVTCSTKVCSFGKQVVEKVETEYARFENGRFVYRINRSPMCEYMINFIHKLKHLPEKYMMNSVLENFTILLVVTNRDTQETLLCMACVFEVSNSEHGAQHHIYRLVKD
Test name: TR-FRET lipid pocket probe competition assay (Lipid HTRF), TEAD1;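 further: His-tagged TEAD1 with biotinylated probe, detected via Europium anti-His and XL665 streptavidin, probe displacement lowers TR-FRET signal, IC50 from four-parameter nonlinear fit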
Type: binding
Assay context: 4 hours pre-incubation; read-out: Lipid HTRF TEAD1 IC50
Overview of reported pIC50 across a group of compounds:
# log scale: pIC50 equals minus log10 of the concentration in mol/L

Here's what some known entries look like.
Compound | pIC50
C=CC(=O)NCc1nn(-c2ccc(S(F)(F)(F)(F)F)cc2)c2cccc(C#N)c12 | 7.08
C/C=C/C(=O)N1CC(c2nn(-c3ccc(OC(F)(F)F)cc3)c3nccc(CO)c23)C1 | 7.57
C=CC(=O)NCc1nn(-c2cccc(OC(F)(F)F)c2)c2nccc([C@@H](O)CO)c12 (stereo in doubt) | 6.54
C[C@H](O)/C=C/C(=O)N1CC(c2nn(-c3ccc(OC(F)(F)F)cc3)c3nccc(CO)c23)C1 | 7.11
O=C(/C=C/CO)N1CC(c2nn(-c3ccc(OC(F)(F)F)cc3)c3ccnc(N4CC(O)C4)c23)C1 | 6.74
C=CC(=O)NCc1nn(-c2ccc(S(F)(F)(F)(F)F)cc2)c2ncccc12 | 8.00
O=C(/C=C/CF)NCc1nn(-c2ccc(OC(F)(F)F)cc2)c2nccc(CO)c12 | 7.68
[2H]C([2H])=C([2H])C(=O)NCc1nn(-c2ccc(OC(F)(F)F)cc2)c2nccc(CO)c12 | 7.80
C=C(F)C(=O)N1CC(c2nn(-c3ccc(OC(F)(F)F)cc3)c3nccc(-c4cnn(CCO)c4)c23)C1 | 7.64
C=CC(=O)NCc1nn(-c2ccc(OC(F)(F)F)cc2)c2nccc(-c3c[nH]nn3)c12 | 7.49

C=CC(=O)NCc1nn(-c2cccc(OC(F)(F)F)c2)c2nccc([C@H](O)CO)c12 (stereo in doubt) has a reported pIC50 of 6.06

`C=CC(=O)N1CC(c2nn(-c3ccc(OC(F)(F)F)cc3)c3nccc([C@H](O)CO)c23)C1` has a reported pIC50 of 7.72

`C=CC(=O)NCc1nn(-c2ccc(OC(F)(F)F)cc2)c2nccc(N3CC(F)C3)c12` has a reported pIC50 of 7.64

`C=CC(=O)NCc1nn(-c2ccc(OC(F)F)cc2)c2nccc(CO)c12` has a reported pIC50 of 6.64

`C=CC(=O)NCc1nn(-c2ccc(OC(F)(F)F)cc2)c2nccc(C(=O)NC)c12` has a reported pIC50 of 6.31

`O=C(/C=C/Cl)N1CC(c2nn(-c3ccc(OC(F)(F)F)cc3)c3nccc(CO)c23)C1` has a reported pIC50 of 8.00

The reported numbers originate from patent US12110276B2.
